The reported measurements were obtained from patent US11998539B2.

Reported IC50 values follow for various molecules
Target: DGKα (Homo sapiens (Human))
Sequence (P23743 other isoform, or with tags, fused parts or gaps): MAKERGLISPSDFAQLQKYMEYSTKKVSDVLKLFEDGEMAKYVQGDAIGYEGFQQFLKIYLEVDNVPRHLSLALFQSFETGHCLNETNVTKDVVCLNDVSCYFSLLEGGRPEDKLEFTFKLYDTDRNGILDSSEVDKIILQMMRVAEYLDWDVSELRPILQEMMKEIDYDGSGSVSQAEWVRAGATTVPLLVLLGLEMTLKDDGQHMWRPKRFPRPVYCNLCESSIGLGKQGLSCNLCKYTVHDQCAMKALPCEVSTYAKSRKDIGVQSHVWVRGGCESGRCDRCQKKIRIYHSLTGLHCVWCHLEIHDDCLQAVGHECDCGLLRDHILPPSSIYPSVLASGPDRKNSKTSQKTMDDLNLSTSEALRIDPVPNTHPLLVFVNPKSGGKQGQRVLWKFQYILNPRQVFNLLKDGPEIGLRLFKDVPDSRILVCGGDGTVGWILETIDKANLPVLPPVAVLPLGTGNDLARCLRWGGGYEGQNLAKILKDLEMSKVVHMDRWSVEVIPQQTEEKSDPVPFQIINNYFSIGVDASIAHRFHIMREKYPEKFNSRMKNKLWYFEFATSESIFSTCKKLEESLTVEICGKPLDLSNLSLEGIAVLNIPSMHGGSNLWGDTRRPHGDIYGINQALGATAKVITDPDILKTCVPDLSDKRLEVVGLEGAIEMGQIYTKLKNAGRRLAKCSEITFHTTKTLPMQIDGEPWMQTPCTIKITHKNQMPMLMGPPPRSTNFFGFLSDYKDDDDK
Test: Human DGKα kinase activity inhibition assay (ADP-Glo)
Settings: recombinant full-length human DGKα, 55 μM ATP, 7 μM 1,2-dioleoyl-sn-glycerol, read-out: IC50 values of examples in in vitro human DGKa kinase activity inhibition assays
Procedure: Human DGKα Kinase Activity Inhibition Assay Human DGKα inhibitory activity of compounds of the present invention was quantified employing the human DGKα kinase activity assay as described in the following paragraphs. In essence, the enzyme activity was measured by quantification of the adenosine-di-phosphate (ADP) generated as a co-product of the enzyme reaction via the “ADP-Glo™ Kinase Assay” kit from the company Promega. […]

[
  {
    "MOLECULE": "Cc1ccc2c(N3CCC(c4nc5ccccc5s4)CC3)c(C#N)c(=O)n(C)c2c1 [Example 222]",
    "MEASURED_ON": "DGKα (Homo sapiens (Human))",
    "IC50": "5.2 nM"
  },
  {
    "MOLECULE": "Cc1ccc2oc(C3CCN(c4c(C#N)c(=O)n(C)c5cc(O)c(Br)cc45)CC3)nc2c1 [Example 422]",
    "MEASURED_ON": "DGKα (Homo sapiens (Human))",
    "IC50": "0.7 nM"
  },
  {
    "MOLECULE": "COCCOc1ccc2c(N3CCC(c4nc5cc(C)ccc5o4)CC3)c(C#N)c(=O)n(C)c2c1 [Example 383]",
    "MEASURED_ON": "DGKα (Homo sapiens (Human))",
    "IC50": "5.1 nM"
  },
  {
    "MOLECULE": "Cc1ccc2oc(C3(C)CCN(c4c(C#N)c(=O)n(C)c5cc(C6CC6)ccc45)CC3)nc2c1 [Example 250]",
    "MEASURED_ON": "DGKα (Homo sapiens (Human))",
    "IC50": "9.1 nM"
  },
  {
    "MOLECULE": "Cc1cccc(-n2ccc(C3CCN(c4c(C(N)=O)c(=O)n(C)c5ccccc45)CC3)n2)c1 [Example 472]",
    "MEASURED_ON": "DGKα (Homo sapiens (Human))",
    "IC50": "6.7 nM"
  },
  {
    "MOLECULE": "Cc1ccc2c(N3CCC(C)(c4nc5ccccc5o4)CC3)c(C(N)=O)c(=O)n(C)c2c1 [Example 311]",
    "MEASURED_ON": "DGKα (Homo sapiens (Human))",
    "IC50": "1.2 nM"
  },
  {
    "MOLECULE": "Cn1cc(C2CCN(c3c(C#N)c(=O)n(C)c4ccccc34)CC2)cn1 [Example 323]",
    "MEASURED_ON": "DGKα (Homo sapiens (Human))",
    "IC50": "326 nM"
  },
  {
    "MOLECULE": "CC(C)c1ccc2oc(C3CCN(c4c(C#N)c(=O)n(C)c5ccccc45)CC3)nc2c1 [Example 8]",
    "MEASURED_ON": "DGKα (Homo sapiens (Human))",
    "IC50": "3.2 nM"
  },
  {
    "MOLECULE": "COCCc1ccc2oc(C3CCN(c4c(C(N)=O)c(=O)n(C)c5ccccc45)CC3)nc2c1 [Example 295]",
    "MEASURED_ON": "DGKα (Homo sapiens (Human))",
    "IC50": "9.5 nM"
  },
  {
    "MOLECULE": "Cc1ccc2oc(C3(C)CCN(c4c(C#N)c(=O)n(C)c5cc(OC6COC6)ccc45)CC3)nc2c1 [Example 241]",
    "MEASURED_ON": "DGKα (Homo sapiens (Human))",
    "IC50": "2.5 nM"
  },
  {
    "MOLECULE": "Cn1c(=O)c(C#N)c(N2CCC(c3ccc(OC(F)(F)F)cc3)CC2)c2ccccc21 [Example 43]",
    "MEASURED_ON": "DGKα (Homo sapiens (Human))",
    "IC50": "11 nM"
  },
  {
    "MOLECULE": "CCOc1ccc2c(c1)c(N1CCC(c3nc4cc(C)ccc4o3)CC1)c(C(N)=O)c(=O)n2C [Example 502]",
    "MEASURED_ON": "DGKα (Homo sapiens (Human))",
    "IC50": "120 nM"
  },
  {
    "MOLECULE": "COC1(c2nc3ccccc3o2)CCN(c2c(C#N)c(=O)n(C)c3ccccc23)CC1 [Example 390]",
    "MEASURED_ON": "DGKα (Homo sapiens (Human))",
    "IC50": "3.5 nM"
  },
  {
    "MOLECULE": "Cc1ccc2oc(C3CCN(c4c(C(N)=O)c(=O)n(C)c5ccc(F)cc45)CC3)nc2c1 [Example 298]",
    "MEASURED_ON": "DGKα (Homo sapiens (Human))",
    "IC50": "0.5 nM"
  },
  {
    "MOLECULE": "Cc1ccc2oc(C3CCN(c4c(C(N)=O)c(=O)n(C)c5cc(N(C)CCO)ccc45)CC3)nc2c1 [Example 495]",
    "MEASURED_ON": "DGKα (Homo sapiens (Human))",
    "IC50": "1.4 nM"
  },
  {
    "MOLECULE": "Cc1ccc2oc(C3(C)CCN(c4c(C#N)c(=O)n(C)c5cc(OCC6(C#N)CC6)ccc45)CC3)nc2c1 [Example 251]",
    "MEASURED_ON": "DGKα (Homo sapiens (Human))",
    "IC50": "9.3 nM"
  }
]
